Tested on: human prostate tumor xenografts (22Rv1 cells)
Run description: Tissue biodistribution and tumor-to-tissue fluorescence ratio of DUPA-NIR conjugates, IVIS imaging
Format: in vivo, mice
Conditions: 2 h after tail vein injection
Metric name: fluorescence intensity in the tumor / tumor accumulation

CC1(C)C(/C=C/C2=C(Oc3ccc(C[C@H](NC(=O)CCCCCCCNC(=O)[C@H](Cc4ccccc4)NC(=O)[C@H](Cc4ccccc4)NC(=O)CC[C@H](NC(=O)N[C@@H](CCC(=O)O)C(=O)O)C(=O)O)C(=O)O)cc3)C(=C/C=C3/N(CCCCS(=O)(=O)O)c4ccc(S(=O)(=O)O)cc4C3(C)C)/CCC2)=[N+](CCCCS(=O)(=O)[O-])c2ccc(S(=O)(=O)O)cc21 [Compound 6]	lower
CC1(C)C(/C=C/C2=C(Oc3ccc(C[C@H](NC(=O)CCCCCCCNC(=O)[C@H](Cc4ccccc4)NC(=O)[C@H](Cc4ccccc4)NC(=O)C[C@H](NC(=O)CC[C@H](NC(=O)N[C@@H](CCC(=O)O)C(=O)O)C(=O)O)C(=O)O)C(=O)O)cc3)C(=C/C=C3/N(CCCCS(=O)(=O)O)c4ccc(S(=O)(=O)O)cc4C3(C)C)/CCC2)=[N+](CCCCS(=O)(=O)[O-])c2ccc(S(=O)(=O)O)cc21 [Compound 7]	lower
